Target: Pantothenate synthetase (Mycobacterium tuberculosis (strain ATCC 25618 / H37Rv)) (UniProt P9WIL5)
Sequence (P9WIL5 whole entry, looked up): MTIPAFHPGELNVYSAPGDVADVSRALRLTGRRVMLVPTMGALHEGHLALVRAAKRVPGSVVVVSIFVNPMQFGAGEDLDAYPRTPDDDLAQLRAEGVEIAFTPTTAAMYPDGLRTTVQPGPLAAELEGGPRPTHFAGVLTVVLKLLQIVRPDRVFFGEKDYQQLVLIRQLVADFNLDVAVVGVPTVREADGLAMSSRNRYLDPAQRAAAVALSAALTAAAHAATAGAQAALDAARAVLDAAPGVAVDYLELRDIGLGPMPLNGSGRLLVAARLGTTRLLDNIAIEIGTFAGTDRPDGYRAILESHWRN
Test: Coupled enzyme confirmation of inhibitors against recombinant Mtb PanC (AID 375);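 note: 0% = full reaction with vehicle and 100% = no enzyme background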
Details: coupled enzyme assay; at 10 µM, stronger effect = higher value
Active and inactive are the calls of the source. The rule behind the calls is not given here.
Recorded inhibition for the following compounds

compound="O=C(NC1CCCCC1)C1CCCN1C(=O)NCc1ccccc1 (stereo unspecified)" assay_value="4% (inactive)"
compound="O=C(c1sc2ccccc2c1Cl)N(Cc1cccs1)C1CCS(=O)(=O)C1 (stereo unspecified)" assay_value="0% (inactive)"
compound=CCOC(=O)N1CCN(C(=O)Cn2ncn3nc(-c4cccs4)cc3c2=O)CC1 assay_value="0% (inactive)"
compound=CN(C(=O)c1ccccc1Cl)c1ccccc1 assay_value="2% (inactive)"
compound=Cc1cccc(NC(=O)CCn2ccnc2C)c1 assay_value="0% (inactive)"

Query block: For the compound shown here, Cc1ccc(C)c(NC(=O)CC(NCCCN2CCOCC2)C(=O)O)c1 (stereo unspecified) , give the reported inhibition.
Result block: 7% (inactive)

Query block: // next record COc1ccc(S(=O)(=O)N2CCC(C(=O)c3ccc4c(c3)OCCO4)CC2)cc1
Result block: 0% (inactive)

Query block: Can you check CC(=O)Nc1nc2c(c3c1c(=O)oc1ccccc13)CC(C)CC2 (stereo unspecified) next?
Result block: 0% (inactive)

Query block: Item: CC(=O)c1c(C)nc(C)nc1NC(=O)Cc1ccccc1
Result block: 0% (inactive)

Query block: Try this compound too: COc1cc(-c2nc(-c3cccc(C(F)(F)F)c3)no2)cc(OC)c1OC
Result block: 0% (inactive)

Query block: Would you mind doing CCOC(=O)Nc1ccc2c(c1)N(C(=O)CCN1CCOCC1)c1ccccc1S2 as well?
Result block: 3% (inactive)

Query block: Please do the same for CC(C)(C#N)Nn1cnnc1 as well.
Result block: 0% (inactive)

Query block: Let us now turn to CCN1C(=O)c2ccccc2S(=O)c2ccc(C(=O)NC3CC3)cc21 (stereo unspecified)
Result block: 6% (inactive)

Query block: What about this compound? C(#Cc1ccccc1)Cn1nnc2ccccc21
Result block: 0% (inactive)

Query block: Lookup Cc1nc2ccccc2c(=O)n1/N=C/c1ccncc1
Result block: 3% (inactive)

Query block: Subsequent entry: O=C(CCNS(=O)(=O)c1ccc(Br)s1)N1CCCCC1
Result block: 0% (inactive)

Query block: // next record CC1=C(C(=O)OC(C)C)C(c2ccccn2)n2ncnc2N1 (stereo unspecified)
Result block: 0% (inactive)

Query block: Next up: Cc1ccccc1OCCn1c(=O)oc2ccccc21
Result block: 2% (inactive)

Query block: Further, for Cc1ccc2c(c1)nnn2C1CCN(C(=O)NC23CC4CC(CC(C4)C2)C3)CC1 ?
Result block: 0% (inactive)
